Numbers sourced from patent US7192958B2.

- ASSAY SYSTEM: airway epithelial sodium currents (epithelial Na+ channel, ENaC) in canine bronchial epithelia (Canis lupus familiaris, UniProt A0A8I3MKE6+A0A8I3Q679+Q95165)
- Construct: endogenous in cells; host or cells: primary canine bronchial epithelial cells cultured at air-liquid interface, mounted in Ussing chambers
- Sequence (A0A8I3Q679 1-649): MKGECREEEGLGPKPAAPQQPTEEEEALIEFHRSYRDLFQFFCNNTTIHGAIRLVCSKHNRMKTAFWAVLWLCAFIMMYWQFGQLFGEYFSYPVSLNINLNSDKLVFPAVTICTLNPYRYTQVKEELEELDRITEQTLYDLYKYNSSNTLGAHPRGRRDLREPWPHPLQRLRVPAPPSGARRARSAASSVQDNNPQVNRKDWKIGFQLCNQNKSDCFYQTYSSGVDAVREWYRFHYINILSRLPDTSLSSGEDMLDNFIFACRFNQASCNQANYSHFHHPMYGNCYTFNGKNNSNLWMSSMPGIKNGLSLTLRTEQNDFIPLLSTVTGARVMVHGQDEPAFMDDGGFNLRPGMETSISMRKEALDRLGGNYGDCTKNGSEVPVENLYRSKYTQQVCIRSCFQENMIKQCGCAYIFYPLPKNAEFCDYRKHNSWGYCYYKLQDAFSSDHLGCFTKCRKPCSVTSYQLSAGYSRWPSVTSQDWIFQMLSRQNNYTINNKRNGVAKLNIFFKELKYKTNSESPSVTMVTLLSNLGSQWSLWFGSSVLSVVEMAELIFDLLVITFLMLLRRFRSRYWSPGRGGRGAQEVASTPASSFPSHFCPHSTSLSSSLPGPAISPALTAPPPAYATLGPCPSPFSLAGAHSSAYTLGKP
- Sequence (Q95165 whole entry): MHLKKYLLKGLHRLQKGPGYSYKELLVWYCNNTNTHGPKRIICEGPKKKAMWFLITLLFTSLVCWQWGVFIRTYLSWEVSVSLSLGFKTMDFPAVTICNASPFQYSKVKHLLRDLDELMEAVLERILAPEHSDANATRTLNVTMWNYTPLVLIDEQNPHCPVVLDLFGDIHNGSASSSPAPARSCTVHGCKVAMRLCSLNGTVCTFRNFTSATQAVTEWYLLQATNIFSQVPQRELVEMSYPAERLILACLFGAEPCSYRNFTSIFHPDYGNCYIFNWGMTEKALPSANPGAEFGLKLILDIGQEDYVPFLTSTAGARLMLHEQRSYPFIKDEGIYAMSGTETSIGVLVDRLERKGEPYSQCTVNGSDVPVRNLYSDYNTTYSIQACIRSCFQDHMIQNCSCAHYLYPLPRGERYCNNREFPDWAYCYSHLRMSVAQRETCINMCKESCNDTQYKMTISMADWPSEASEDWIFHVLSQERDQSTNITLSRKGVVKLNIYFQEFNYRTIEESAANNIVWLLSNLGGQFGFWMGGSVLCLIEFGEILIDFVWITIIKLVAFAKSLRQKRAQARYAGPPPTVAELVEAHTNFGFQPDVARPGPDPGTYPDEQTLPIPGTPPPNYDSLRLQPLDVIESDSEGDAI
- Sequence (A0A8I3MKE6 1-646): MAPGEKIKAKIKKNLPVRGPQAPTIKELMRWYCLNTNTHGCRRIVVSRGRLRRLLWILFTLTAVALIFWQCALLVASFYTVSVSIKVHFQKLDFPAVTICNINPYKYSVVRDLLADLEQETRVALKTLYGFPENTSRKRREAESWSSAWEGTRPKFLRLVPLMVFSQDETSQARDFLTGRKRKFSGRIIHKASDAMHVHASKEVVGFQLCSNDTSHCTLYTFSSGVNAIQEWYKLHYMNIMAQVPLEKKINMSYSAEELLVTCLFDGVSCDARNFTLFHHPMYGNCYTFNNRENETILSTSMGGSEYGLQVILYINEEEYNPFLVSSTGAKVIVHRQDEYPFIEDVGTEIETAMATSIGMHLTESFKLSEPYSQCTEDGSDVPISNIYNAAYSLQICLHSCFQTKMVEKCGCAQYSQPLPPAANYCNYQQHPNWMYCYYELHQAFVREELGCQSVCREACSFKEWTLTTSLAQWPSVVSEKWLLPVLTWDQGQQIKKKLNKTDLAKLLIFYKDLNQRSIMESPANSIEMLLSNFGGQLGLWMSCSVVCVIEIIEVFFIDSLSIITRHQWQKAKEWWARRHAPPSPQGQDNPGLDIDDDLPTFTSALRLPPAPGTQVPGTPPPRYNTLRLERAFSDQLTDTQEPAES
- ASSAY PROTOCOL: Sodium channel blocking activity: potency in canine bronchial epithelia, short circuit current (ISC) in Ussing chambers
- Type: cell-based
- DETAILS: relative to amiloride as positive control
MEASUREMENT LABEL: Fold Enhancement Over Amiloride (fold)
Dear colleague, please return just the value in fold, with no unit written.

Look up Fold Enhancement Over Amiloride for this compound: Cl.N=C(NCCCc1ccc(O)cc1)NC(=O)c1nc(Cl)c(N)nc1N [drawing 27 n 3 Position of R 4 R OH]
5.2

Could you tell me which Fold Enhancement Over Amiloride is on file for Cl.N=C(NCCCCc1ccc(O)c(O)c1)NC(=O)c1nc(Cl)c(N)nc1N [drawing 26 Position 3,4 R H] ?
15.1

Recorded Fold Enhancement Over Amiloride of Br.N=C(NCCCOc1ccc(O)cc1)NC(=O)c1nc(Cl)c(N)nc1N [drawing 29 a CH2 b O R H] , please.
16.1

Need Fold Enhancement Over Amiloride of Cl.N=C(NCCCCCc1ccc(O)cc1)NC(=O)c1nc(Cl)c(N)nc1N [drawing 27 n 5 Position of R 4 R OH] , thanks.
14

// Fold Enhancement Over Amiloride lookup, key: Cl.N=C(NCCCCc1ccc(O)cc1O)NC(=O)c1nc(Cl)c(N)nc1N [drawing 26 Position 2,4 R H]
14.9

Quick one: Fold Enhancement Over Amiloride of Cl.N=C(NCCCCc1ccc(O)cc1)NC(=O)c1nc(Cl)c(N)nc1N [drawing 27 n 4 Position of R 4 R OH] ?
50.3
